- assay: HUVEC growth inhibition – cell-based, human, primary screen (AID 575)
- assay-setup: HUVEC proliferation, CellTiter-Glo luminescence, 72 h; at 10 µM; stronger effect = lower value
Please note: viability exactly at 90% is not satisfied. Only values below 90% get satisfied.

Record excerpt, results attached:
[[record]]
compound = "COCCn1nnnc1C(c1cc2cc(OC)ccc2[nH]c1=O)N1CCC(Cc2ccccc2)CC1 (configuration not stated)"
classification = "satisfied"

[[record]]
compound = "COCC(=O)N(Cc1ccc(OC)cc1)Cc1nc2ccccc2c(=O)[nH]1"
classification = "satisfied"

[[record]]
compound = "Cc1nc2c(-c3ccccc3)c(C)nn2c(C)c1CCC(=O)O"
classification = "satisfied"

[[record]]
compound = "COc1ccc(N2CCN(c3ccc(NC(=O)C4CCCCC4)cc3C#N)CC2)cc1"
classification = "satisfied"

[[record]]
compound = "COc1ccc(NC(=O)Cn2nnc(-c3ccccc3N)n2)cc1OC"
classification = "not satisfied"

[[record]]
compound = "COc1cc(C2C(C#N)=C(N)Oc3cc(N)ccc32)cc(OC)c1OC (configuration not stated)"
classification = "satisfied"

[[record]]
compound = "O=C(Nc1ccccc1N1CCOCC1)c1ccc2ccccc2n1"
classification = "satisfied"

[[record]]
compound = "CCOc1ccc(C2CC(c3cccc(C)c3)n3ncnc3N2)cc1 (configuration not stated)"
classification = "not satisfied"

[[record]]
compound = "COc1ccc(CC(=O)N2CCOCC2)cc1OC"
classification = "not satisfied"

[[record]]
compound = "O=C(CN1C(=O)NC2(CCCCCC2)C1=O)N1CCC(Cc2ccccc2)CC1"
classification = "satisfied"


Consider the additional compound presented here.
Challenge: Lab note: viability threshold 90%. Does this compound come in strictly under it? COc1ccc(N(CC(=O)N2c3ccccc3CC2C)S(=O)(=O)c2c(C)noc2C)cc1 (configuration not stated)
Response given: satisfied

* * *

- assay: reversal of MRP1-mediated doxorubicin resistance, pilot screen, H69AR cells, doxorubicin co-treatment (AID 601)
- assay-setup: H69AR cells + 2 uM doxorubicin, CellTiter-Glo, 72 h; measured here: viability with 2 uM doxorubicin; at 10 µM; stronger effect = lower value
Please note: viability exactly at 90% is criterion not met. Only values below 90% get criterion met.

[[record]]
molecule = "CC(=O)Nc1ccccc1-c1nc2ccc(C(=O)N3CCN(c4ccccc4)CC3)cc2[nH]c1=O"
classification = "criterion not met"

[[record]]
molecule = "CCOc1ccc(N(CC(=O)NC2CCCC2)S(=O)(=O)c2c(C)[nH]c(=O)[nH]c2=O)cc1"
classification = "criterion met"

[[record]]
molecule = "COc1ccc(OCC(=O)N2CCN(C(=O)c3cccs3)CC2)cc1"
classification = "criterion met"

[[record]]
molecule = "CCCn1c2c(c(O)c(C(=O)Nc3ccc(C)cn3)c1=O)CCCC2"
classification = "criterion not met"

[[record]]
molecule = "C=C(Cl)COC(=O)[C@H]1C2C=CC(C2)C1C(=O)O (some centres undefined)"
classification = "criterion not met"


Challenge: Lab note: viability threshold 90%. Does this molecule come in strictly under it? CCOc1ccc(NC(=O)CSc2nnc(Cc3cccn3C)n2-c2ccc(OC)cc2)cc1
Response given: criterion not met

Challenge: Lab note: viability threshold 90%. Does this molecule come in strictly under it? COc1ccc(OC)c(S(=O)(=O)Nc2ccccc2C(=O)O)c1
Response given: criterion met

Challenge: Lab note: viability threshold 90%. Does this molecule come in strictly under it? COc1ccc(-n2c(SCC(=O)c3c(N)n(C)c(=O)n(C)c3=O)nc3ccccc32)cc1
Response given: criterion met

Challenge: Lab note: viability threshold 90%. Does this molecule come in strictly under it? O=C(CSc1nnc(Cn2nnc(-c3ccccc3)n2)n1-c1ccccc1)Nc1ccc(F)cc1
Response given: criterion met

Challenge: Lab note: viability threshold 90%. Does this molecule come in strictly under it? CCn1nc(C(=O)OCC(=O)c2cc(C)n(Cc3cccs3)c2C)c2ccccc2c1=O
Response given: criterion not met
